test_name: qHTS assay to identify small molecule HDAC inhibitors - cell viability counter screen (AID 1259365); further: nearly all actives have a fitted effect of over 50% in size
condition: HCT-116 viability, CellTiter-Glo ATP luminescence, 2 h; series mostly up to 92.4 µM
The source made the active and inactive calls. The call rests on the fitted dose curve; in most records, active means well fitted cell-killing curve with a large enough effect in the repeat runs; inconclusive means weak or mixed curves, or effect the other way; inactive means flat fitted curve, though single readings scatter.
// classify into yes = active, no = inactive

- molecule: "Oc1ccc(N=Nc2ccccc2)cc1"
  classification: "no"

Returns: the outcome recorded for CCCCCCCCCCC=O in this assay.
no

Returns: the outcome recorded for CNc1ccc(O)cc1 in this assay.
yes

Returns: the outcome recorded for O=c1[nH]sc2cc(Cl)ccc12 in this assay.
no

Returns: the outcome recorded for Cc1cccc(N(C)C(=S)Oc2ccc3c(c2)C2CCC3C2)c1 (configuration not stated) in this assay.
no

Returns: the outcome recorded for CCC(C)Nc1ccc(NC(C)CC)cc1 (configuration not stated) in this assay.
yes

----------
target: Nuclear receptor subfamily 1 group I member 3 (Homo sapiens) (UniProt Q14994)
Sequence (Q14994 whole entry, looked up): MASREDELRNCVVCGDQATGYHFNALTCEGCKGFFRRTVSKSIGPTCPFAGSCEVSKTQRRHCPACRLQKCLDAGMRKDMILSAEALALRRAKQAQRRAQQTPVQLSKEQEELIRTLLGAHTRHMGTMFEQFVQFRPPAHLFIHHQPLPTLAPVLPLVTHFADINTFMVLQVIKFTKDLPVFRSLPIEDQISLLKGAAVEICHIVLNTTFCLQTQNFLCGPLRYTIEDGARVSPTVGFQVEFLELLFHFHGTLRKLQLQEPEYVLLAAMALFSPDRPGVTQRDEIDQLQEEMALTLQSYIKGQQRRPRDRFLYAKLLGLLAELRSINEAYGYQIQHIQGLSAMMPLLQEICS
test_name: qHTS assay to identify small molecule agonists of the constitutive androstane receptor (CAR) signaling pathway (AID 1224839); further: nearly all actives have a fitted effect of over 15% in size;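 on activation: HepG2 cells stably carrying human CAR and a CYP2B6 luciferase reporter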
condition: HepG2 hCAR CYP2B6-luciferase, agonist mode, 24 h; series mostly up to 92.4 µM
Inconclusive results are not listed. Active and inactive are the calls of the source. The call rests on the fitted dose curve; in most records, active means well fitted activation curve with a large enough effect in the repeat runs; inconclusive means weak or mixed curves; inactive means no such curve, though single readings can be large or run the other way.
// classify into active, inactive

- compound: "NC(=O)N1C(=O)C(C(=O)c2cc(Cl)cs2)c2cc(F)c(Cl)cc21 (stereo unspecified)"
  classification: "inactive"
- compound: "Cc1[nH]cnc1C[C@H]1CCc2c(C)c3ccccc3n2C1=O"
  classification: "inactive"
- compound: "O=C1C=CC(=O)N1"
  classification: "inactive"
- compound: "C=CC(=O)OCC(CO)(COCC(COC(=O)C=C)(COC(=O)C=C)COC(=O)C=C)COC(=O)C=C"
  classification: "inactive"
- compound: "Nc1ccccc1O"
  classification: "active"

Attention now turns to another entry.
Returns: the outcome recorded for Cc1oc(-c2ccccc2)nc1CCC(=O)c1ccc(CC2SC(=O)NC2=O)cc1 (stereo unspecified) in this assay.
inactive

----------
test_name: Caspase-3/7 induction in HepG2 cells by small molecules, qHTS assay (AID 1346978); further: nearly all actives have a fitted effect of over 15% in size
condition: HepG2 caspase-3/7 activation, Caspase-Glo luminescence, 17 h; series mostly up to 92.4 µM
Records with an inconclusive call do not appear. Active and inactive are the calls of the source. The call rests on the fitted dose curve; in most records, active means well fitted activation curve with a large enough effect in the repeat runs; inconclusive means weak or mixed curves; inactive means flat fitted curve, though single readings scatter.
// classify into active, inactive

- compound: "CCCC(c1cc(C(C)(C)C)c(O)cc1C)c1cc(C(C)(C)C)c(O)cc1C"
  classification: "active"
- compound: "Cc1oc(-c2ccccc2)nc1CCC(=O)c1ccc(CC2SC(=O)NC2=O)cc1 (stereo unspecified)"
  classification: "inactive"
- compound: "Cc1cc(C2CCCCC2)n(O)c(=O)c1"
  classification: "inactive"

Returns: the outcome recorded for CCOC(=O)c1nc(C(Cl)(Cl)Cl)n(-c2ccc(Cl)cc2Cl)n1 in this assay.
inactive

Returns: the outcome recorded for CCCCCCCCCCCCCC[P+](CCCC)(CCCC)CCCC (tested in a mixture with another compound) in this assay.
active

----------
test_name: qHTS assay to identify small molecule antagonists of the thyroid receptor (TR) signaling pathway (AID 743065); further: nearly all actives have a fitted effect of over 55% in size
condition: GH3.TRE-Luc, T3-stimulated luciferase inhibition, 23.5 h; series mostly up to 70.3 µM
Records with an inconclusive call do not appear. Calls of active or inactive are those of the source. Calls come from the whole dose curve; as a rule, active = well fitted inhibition curve with a large enough effect in the repeat runs; inconclusive = weak or mixed curves; inactive = no such curve, though single readings can be large or run the other way.
// classify into yes (1) = active, no (0) = inactive

Observe how each entry below is paired with its result.
- compound: "CCN(Cc1cccnc1)C(=O)c1cccc(Cl)c1[C@]1(C)C(=O)N(Cc2ccc(OC)cc2OC)c2ccc(Cl)cc21"
  classification: "yes (1)"
- compound: "Cc1cccc2c1cc1ccc3cccc4ccc2c1c34"
  classification: "no (0)"
- compound: "CCCCCCCCS(=O)C(C)Cc1ccc2c(c1)OCO2 (stereo unspecified)"
  classification: "yes (1)"
- compound: "Cc1ccc(O)c2ncccc12"
  classification: "yes (1)"
- compound: "C=CC(=O)OCCn1c(=O)n(CCOC(=O)C=C)c(=O)n(CCOC(=O)C=C)c1=O"
  classification: "yes (1)"
- compound: "CC(C)(C)C(=O)OCOC(=O)[C@@H]1N2C(=O)[C@@H](NC(=O)[C@H](N)c3ccccc3)[C@H]2SC1(C)C"
  classification: "no (0)"
- compound: "Cc1cc(O)c2ccccc2c1O"
  classification: "yes (1)"
- compound: "CCCCc1oc2ccc(NS(C)(=O)=O)cc2c1C(=O)c1ccc(OCCCN(CCCC)CCCC)cc1"
  classification: "yes (1)"

Returns: the outcome recorded for N/C(=N\N=C\c1ccc(Cl)cc1)N/N=C/c1ccc(Cl)cc1 in this assay.
yes (1)

Returns: the outcome recorded for Clc1ccc2n[nH]nc2c1 in this assay.
no (0)

Returns: the outcome recorded for Fc1ccc([C@@H]2CCNC[C@H]2COc2ccc3c(c2)OCO3)cc1 in this assay.
yes (1)

Returns: the outcome recorded for CCCCCCCC[P+](CCCCCCCC)(CCCCCCCC)CCCCCCCC in this assay.
yes (1)

Returns: the outcome recorded for CCc1oc2ccccc2c1C(=O)c1cc(Br)c(O)c(Br)c1 in this assay.
yes (1)

Returns: the outcome recorded for CCCCN1C(=O)[C@@H]([C@H](O)C2CCCCC2)NC(=O)C12CCN(Cc1ccc(Oc3ccc(C(=O)O)cc3)cc1)CC2 in this assay.
yes (1)

Returns: the outcome recorded for CNC(=O)c1ccccc1 in this assay.
no (0)

Returns: the outcome recorded for O=[N+]([O-])c1ccccc1Nc1ccccc1 in this assay.
no (0)

Returns: the outcome recorded for CCCN(CCC)C(=O)C(CCC(=O)OCCCN1CCN(CCOC(=O)Cc2c(C)n(C(=O)c3ccc(Cl)cc3)c3ccc(OC)cc23)CC1)NC(=O)c1ccccc1 (stereo unspecified) in this assay.
yes (1)

Returns: the outcome recorded for CC(C)(C)CC(C)(C)c1ccc(O)c(Cc2ccc(Cl)cc2Cl)c1 in this assay.
yes (1)

Returns: the outcome recorded for O=C(c1ccc(F)cc1)C1CCN(CCn2c(=O)[nH]c3ccccc3c2=O)CC1 in this assay.
no (0)

Returns: the outcome recorded for OCCN(CCO)c1nc(N2CCCCC2)c2nc(N(CCO)CCO)nc(N3CCCCC3)c2n1 in this assay.
yes (1)

Returns: the outcome recorded for CC(=O)OCC(C)OC(C)=O (stereo unspecified) in this assay.
no (0)

Returns: the outcome recorded for CSc1ccc2c(c1)C(N1CCN(C)CC1)Cc1ccccc1S2 (stereo unspecified) in this assay.
yes (1)

Returns: the outcome recorded for O=CC=C(c1ccccc1)c1ccccc1 in this assay.
yes (1)

Returns: the outcome recorded for NNC(=O)c1cccc(C(=O)NN)c1 in this assay.
no (0)

Returns: the outcome recorded for CCCCCCOC(=O)c1ccc(O)cc1 in this assay.
no (0)

Returns: the outcome recorded for CCN(C(=O)N(CC)c1ccccc1)c1ccccc1 in this assay.
no (0)
